assay: Plasma protein binding, equilibrium dialysis; format: in vitro ADME; conditions: dog plasma, 37° C, buffer pH 7.4; read-out: Fraction unbound (Fu), Mean

molecule | fraction unbound
CC(C)C[C@@H]1NCCN([C@@H](CC(C)C)C(=O)N2CCC3(C[C@@H]2C)OCC(CN2CCCC2)CO3)C1=O (stereo partly shown) | 0.619

----------
assay: 14-day daily oral repeated-dose DRF study in Beagle dogs (citrate salt); format: in vivo; details: both sexes, Beagle, dog, plasma, po; all doses, Day 1
property_name: Tmax

molecule | property_name | assay_value
CC(C)C[C@@H]1NCCN([C@@H](CC(C)C)C(=O)N2CCC3(C[C@@H]2C)OCC(CN2CCCC2)CO3)C1=O (stereo partly shown) [Compound 1] | Tmax | 1 to 2 h
